System: T. cruzi-infected H9C2 cardiomyocytes, high-content imaging
Experiment: intracellular T. cruzi amastigote inhibition, imaging, H9C2 host cardiomyocytes, host toxicity (AID 1159565);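 also: infected cells incubated 72 h after plating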
Conditions: measured here: amastigotes per cell
condition met if IC50 is below 300 nM. condition not met if not; exact matches included in condition not met.

Dear colleague, could you confirm whether IC50 of CC(=O)Nc1ccc(-c2csc(NC(=O)c3ccc([N+](=O)[O-])s3)n2)cc1 falls below 300 nM? Thanks.
condition met

Strictly below 300 nM: is that where IC50 of O=C(NCC1CCCCN1C(=O)c1cccc2ccccc12)c1ccccc1 (stereo not given) sits?
condition not met

Item CC(C)(C)c1csc(NC(=O)c2ccc([N+](=O)[O-])s2)n1 : IC50 beneath 300 nM, strictly?
condition met

I'd appreciate it if you could check whether Nc1nonc1-c1nc2cncc(C(=O)N3CC[C@H](N)C3)c2n1CC1CC1 has IC50 smaller than 300 nM.
condition not met

Dear colleague, could you confirm whether IC50 of Cn1cncc1CN1CCC2(CC1)COC(Cc1ccccc1)C2 (stereo not given) falls below 300 nM? Thanks.
condition not met

====

Please respond with reported IC50 for every item in the list.
Tested on: T. cruzi-infected H9C2 cardiomyocytes, high-content imaging
Assay: intracellular T. cruzi amastigote inhibition, imaging, H9C2 host cardiomyocytes, host toxicity (AID 1159565);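 also: infected cells incubated 72 h after plating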
Details: measured here: amastigotes per cell

Notebook: CCOC(=O)c1noc(N)c1-c1ccccc1 , IC50 read as > 50000 nM

Record O=C(CN1CCN(S(=O)(=O)c2cccc([N+](=O)[O-])c2)CC1)Nc1ccc(Oc2ccccc2)cc1 , field IC50: 1300 nM

The compound COc1cc(-c2noc(CC#N)n2)ccc1OC(F)F showed IC50 equal to 25000 nM

Recorded result, Cc1cccc(NS(=O)(=O)c2ccc3c(c2)C(=O)c2cc(S(=O)(=O)Nc4cccc(C)c4C)ccc2-3)c1C , IC50: 400 nM

Quick note, IC50 for Cc1nn(-c2ccccc2)nc1CNC(=O)CN(Cc1ccccn1)Cc1ccccn1 landed at 3200 nM

For Cc1nnnn1-c1cccc(C(=O)N2CCC[C@@]3(C)c4ncncc4CCC23)c1 (some centres not stated) the compound record lists IC50 as 320 nM

Short answer for O=C(c1cnn(-c2ccccc2)n1)N1CCCC(n2ccnc2)C1 (configuration not stated) : IC50 was 63 nM

Lab note: O=C(CCc1ccc(-c2ccccc2)o1)N1CCN(c2ccc(O)cc2)CC1 gave IC50 of 790 nM

Just so you know, measured IC50 for COc1cccc(-c2cc(C(F)(F)F)nc(-n3ccc([N+](=O)[O-])n3)n2)c1 came out at 200 nM

Per the records, this compound ( COc1ccc(-c2cc(C)no2)cc1S(=O)(=O)Nc1ccc(C)c(C)c1 ) has IC50 equal to 5000 nM

Recorded IC50 (compound Nc1nccc(-c2csc(Nc3ccc(Cl)cc3)n2)n1 ): > 50000 nM

IC50 measured on CCC(=O)Nc1ccccc1C(=O)Nc1ccccn1 = > 50000 nM

According to the records, this compound COc1cc(NC(=O)Nc2cccc(CNC(=O)OC3CCCCC3)c2)ccc1-c1cnco1 displays IC50 of 32000 nM

O=C(NC(c1ccc(Cl)cc1)c1cnccn1)C1CCN(C(=O)Nc2cccc(C(F)(F)F)c2)CC1 (configuration not stated) has a reported IC50 of 500 nM

# IC50 of CN(C)c1ccc(-c2cc3nccnc3c(OC[C@H]3CCCNC3)n2)cn1 = 1600 nM

IC50 for CCCCNc1nccc(-c2c(-c3ccc(F)cc3)nn3c(N4CCOCC4)cccc23)n1 is 1000 nM

For record Cc1cc(C)n(-c2nc(NC(C)(C)C)nc(N3CCOCC3)n2)n1 the listed IC50 is 3200 nM

Per the record, Cc1cc(C)nc(N2CCC(N(Cc3cccnc3)C(=O)c3cccc(C#N)c3)CC2)n1 has IC50 of 400 nM

Sample CCc1ccc2nc(NC(=O)c3cc(N4CCOCC4)ccn3)sc2c1 ; IC50 observed: 500 nM

# compound Cc1cc(Br)sc1CNCCCNc1cc(=O)c2ccccc2[nH]1 ; its IC50 = 500 nM

For reference, reported IC50 for COc1ccc(C(C)N(C)c2ncc3c(N)nc(N)nc3n2)cc1F (configuration not stated) stands at 63 nM

Form field IC50, entry CCNc1cc(-c2ccccn2)nc(Nc2ccccc2)n1 : 3200 nM

====

Assignment: determine reported IC50 for the given compounds.
System: T. cruzi-infected H9C2 cardiomyocytes, high-content imaging
Assay: intracellular T. cruzi amastigote inhibition, imaging, H9C2 host cardiomyocytes, host toxicity (AID 1159565);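 also: infected cells incubated 72 h after plating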
Details: measured here: H9C2 host cell toxicity

# IC50 measured on T. cruzi-infected H9C2 cardiomyocytes, high-content imaging for item O=C(NCc1ccncc1)c1ccccc1N1CCCN(C(=O)Cc2ccc(F)c(F)c2)CC1 = > 50 µM

Value sought: IC50, system T. cruzi-infected H9C2 cardiomyocytes, high-content imaging, item COc1ccc(C2CC(c3ccc(NS(C)(=O)=O)cc3)=NN2C(=O)c2cccs2)cc1OC (stereo not given) . Result: > 50 µM

Log: T. cruzi-infected H9C2 cardiomyocytes, high-content imaging, compound O=C(CC1(O)C(=O)N(Cc2ccccc2)c2ccc(Br)cc21)c1cccnc1 (stereo not given) , IC50 = 3.2 µM

For CC(C)c1cc(Nc2cc(Cc3ccccc3)nc(NC3CCC(O)CC3)n2)n[nH]1 (stereo not given) on T. cruzi-infected H9C2 cardiomyocytes, high-content imaging, measured IC50 was 0.0063 µM

Reported IC50 (T. cruzi-infected H9C2 cardiomyocytes, high-content imaging) for entry CNc1cncc(C2CCCN2C(=O)Cc2ccc3ccccc3c2)n1 (stereo not given) is > 50 µM

Field IC50 (T. cruzi-infected H9C2 cardiomyocytes, high-content imaging), entry Cn1nc(-c2ccc(NC(=O)Cc3ccccc3Cl)cc2)c2c(N)ncnc21 : 7.9 µM

The measured IC50 that N#Cc1cccc(CNc2ccc(-c3cnn(CC4CC4)c(=O)c3C#N)cc2)c1 showed for T. cruzi-infected H9C2 cardiomyocytes, high-content imaging is > 50 µM

The reported IC50 value, T. cruzi-infected H9C2 cardiomyocytes, high-content imaging, for O=C(Cn1cnc2c(-c3ccccc3)csc2c1=O)N1CCCCC1 reads > 50 µM

Assay T. cruzi-infected H9C2 cardiomyocytes, high-content imaging, sample O=C(CCc1ccc(-c2ccccc2)o1)N1CCN(c2ccc(O)cc2)CC1 , IC50 read: > 50 µM

Recorded IC50 for COc1ccc(NS(=O)(=O)c2cc(NC(=O)c3ccc([N+](=O)[O-])s3)ccc2OC)cc1 on T. cruzi-infected H9C2 cardiomyocytes, high-content imaging was > 50 µM

====

Test system: T. cruzi-infected H9C2 cardiomyocytes, high-content imaging
Assay: intracellular T. cruzi amastigote inhibition, imaging, H9C2 host cardiomyocytes, host toxicity (AID 1159565);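 also: infected cells incubated 72 h after plating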
Settings: measured here: H9C2 host cell toxicity
Assign IC50 to each entry below.
Reply with just the number (in µM).

For COc1ccc(Nc2nccc(N(C)c3n[nH]c4c(F)cccc34)n2)cc1S(C)(=O)=O on T. cruzi-infected H9C2 cardiomyocytes, high-content imaging, measured IC50 was 7.9

Test item O=[N+]([O-])c1ccc(C2=CC(c3ccccc3)=NCCN2)cc1 ; T. cruzi-infected H9C2 cardiomyocytes, high-content imaging; reported IC50 was 32

Given the compound COc1cnc2ccc(=O)n(CCN3CCC(NC(=O)c4ccc(Cl)cc4)CC3)c2c1 and test system T. cruzi-infected H9C2 cardiomyocytes, high-content imaging, the measured IC50 is 0.63

====

Tested on: T. cruzi-infected H9C2 cardiomyocytes, high-content imaging
Assay: intracellular T. cruzi amastigote inhibition, imaging, H9C2 host cardiomyocytes, host toxicity (AID 1159565);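 also: infected cells incubated 72 h after plating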
Conditions: measured here: H9C2 host cell toxicity
pIC50: −log10 of the molar value.
reported_property: pIC50

What the record says about Cc1nc(-c2ccncc2)ncc1C(C)NC(=O)c1ccc(Cl)s1 (stereo not drawn) : pIC50 is < 4.30

The compound listed as O=c1oc2ccccc2n1C1CCN(Cc2ccccc2-c2cccnc2)CC1 has a reported pIC50 of < 4.30

Looking up N#Cc1ccc(Br)cc1[N+](=O)[O-] , I found its pIC50 recorded as 4.40

Form: compound = Cc1ccc(Nc2nc(N)nc(CNC(c3nc4ccccc4[nH]3)C(C)C)n2)cc1 (stereo not drawn) ; pIC50 = < 4.30

The compound Cc1cc(C)c(C#N)c(SCC(=O)c2ccc3c(c2)OCO3)n1 showed pIC50 equal to < 4.30

// pIC50 lookup, compound = C[C@@H](Oc1cc(-n2cnc3ccc(O[C@H]4CCNC4)cc32)sc1C(N)=O)c1ccccc1Cl , result: 6.20

Sample CCOc1ccc(Nc2ccc(S(=O)(=O)N3CCN(C)CC3)cc2[N+](=O)[O-])cc1OCC ; pIC50 observed: < 4.30

So for COCCn1cnc2cc(NC(=O)C3CCCCC3)cc(C(=O)N3CCc4sccc4C3)c21 , the logged pIC50 turned out to be < 4.30

The reported pIC50 of the compound CCOc1cnn(C)c(=O)c1Nc1ccc(C(=O)NCc2ccc(F)cc2)cc1 was < 4.30

COc1ccc2ncc(=O)n(CCN3CCC(NCc4ccc(-c5cccs5)cc4)CC3)c2n1 has a reported pIC50 of 5.10

The compound identified as Cn1c(CN2CCN(c3ncc(C(F)(F)F)cc3Cl)CC2)nc2ccncc21 registered its pIC50 at < 4.30

For record O=c1cc(NCCCNCc2cc(C(F)(F)F)cs2)[nH]c2ccccc12 the listed pIC50 is 4.49

compound C=CCOCC1Cn2nc([N+](=O)[O-])nc2O1 (stereo not drawn) , pIC50 observed: < 4.30

For CC(C)(C)Nc1nc(Nc2ccc3c(c2)CS(=O)(=O)C3)nc2[nH]ccc12 the compound record lists pIC50 as 6.00

The recorded pIC50 for OC1CCC(Nc2nccc(-c3sc(C4CCOCC4)nc3-c3ccc(F)c(F)c3)n2)CC1 (stereo not drawn) is 4.49

Record summary for O=C(CN1CCN(c2ccccn2)CC1)Nc1cc(S(=O)(=O)N2CCCCCC2)ccc1Cl : reported pIC50 = < 4.30

// pIC50 value for N#Cc1cc([N+](=O)[O-])ccc1NC1CCCCCC1 : < 4.30

Sure, the documented pIC50 for FC(F)(F)c1cc(C2CCCN(Cc3c[nH]c4ccccc34)C2)nc2ncnn12 (stereo not drawn) is < 4.30

For this compound ( CCN(CC)c1nc(N(C)C)nc2c1CN(Cc1ccccc1)CC2 ), measured pIC50 is < 4.30

So for Cc1[nH]n2c(=O)c3c(nc2c1-c1ccc(Cl)cc1)CCCC3 , the logged pIC50 turned out to be < 4.30

compound Cc1[nH]nc(C(F)(F)F)c1NC(=O)CCn1cc(Cl)c([N+](=O)[O-])n1 , pIC50 observed: < 4.30

GET /value?item= Cc1cc2ncn(-c3ccc([N+](=O)[O-])cc3C#N)c2cc1C &field=pIC50 returns < 4.30

Lab note: measured pIC50 of O=C(NCCNc1noc(-c2ccc([N+](=O)[O-])cc2)n1)c1ccc(Cl)cc1 was < 4.30

NCc1csc(Nc2cc(Oc3ccccc3)ncn2)n1 has a reported pIC50 of < 4.30

Consider Cn1nc([N+](=O)[O-])nc1N1CCCCC1 . Its measured pIC50 is < 4.30

So, CC1(C)CCC(=Cc2ccc(Cl)cc2)CC1(O)Cn1ccnc1 (stereo not drawn) ? Its pIC50 was 4.49

Per the records, this compound ( COc1ccc(C2C3CCCCC3(O)CCN2CC(=O)Nc2ccc(Cl)cc2Cl)cc1 (stereo not drawn) ) has pIC50 equal to 4.70

pIC50 for CC1CCCCN1C(=O)NCCc1coc(-c2ccc(F)cc2)n1 (stereo not drawn) is < 4.30

For this compound ( Cc1cnc(Nc2cc(Cc3ccccc3)nc(NC3CCC(O)CC3)n2)s1 (stereo not drawn) ), measured pIC50 is 7.49

Measured pIC50 of CC(C)c1sc(Cl)nc1C(=O)NCCc1nc(C(=O)Nc2ccc3c(c2)OCO3)cs1 : < 4.30

For O=C(CN(c1cccc(C(F)(F)F)c1)S(=O)(=O)c1ccc(Cl)cc1)NCc1ccc(F)c(F)c1 the compound record lists pIC50 as < 4.30

compound CN(Cc1nc2ccccc2s1)C(=O)C=Cc1cc2ccccc2o1 , pIC50 observed: < 4.30

Summary for this compound, O=C(Nc1nc2ccccc2[nH]1)c1ccc2nc[nH]c2c1 : pIC50 is < 4.30

Sample CC(=O)Nc1ccc(-c2ccnc(Nc3cccc(C#N)c3)n2)cc1 ; pIC50 observed: 4.89

pIC50 measured on COc1cccc2sc(CN(C)C(=O)C3CNCCN3c3ccc(F)cc3)c(C)c12 (stereo not drawn) = 5.10

Looking up COc1ccc([N+](=O)[O-])cc1NC(=O)c1cc(Cl)ccc1O , I see its pIC50 listed as < 4.30

Entry CC(C)c1cc(C(=O)N2CCCC(c3cc4ncccc4[nH]3)C2)on1 (stereo not drawn) , pIC50 reported as < 4.30

What the record says about COc1ccc(-c2cnc(NC(=O)c3cc(-c4ccccn4)n[nH]3)n2C)cc1 : pIC50 is < 4.30

// sample O=C(Cc1ccc2c(c1)CCC2)Nc1n[nH]c(-c2ccccn2)n1 , its pIC50 was < 4.30

Lab note: measured pIC50 of COc1ccc(Nc2nc(-c3ccccn3)cs2)c(OC)c1 was 5.70

Input COc1ccc(NC(=O)c2ccc(NC(=O)CN(c3ccccc3C)S(C)(=O)=O)cc2)cc1 . Output pIC50: 4.60

Entry under test: O=c1[nH]c(C=Cc2cccc(OCCOc3ccccc3)c2)nc(O)c1[N+](=O)[O-] . Its pIC50 was < 4.30

Lookup result for COc1ccc2ncc(Cl)c(CCN3CC[C@@H](NCc4cc5c(cn4)OCS5)[C@H](O)C3)c2n1 ; measured pIC50: 4.60
